tested on: M14; experiment: NCI tumour cell line growth inhibition, 48 h
The source made the active and inactive calls. Rule as the data show it: active = GI50 up to about 1.1 µM and inactive = higher.
outcome_measure: GI50

# annotated cases, reported GI50 shown
> print(dat)
                                   compound               result
1  CC(C)N(C(=O)C12C3C4C5(C#N)C3C1(I)C5C42I)C(C)C (stereo not drawn)  > 100 µM (inactive)
2  COc1cc(S(=O)(=O)Nc2nc(-c3ccc(N4C(=O)C(CC(=O)O)SC4c4ccccc4O)cc3)cs2)ccc1Cl (stereo not drawn)  > 100 µM (inactive)
3  NCC(=O)C(O)C(O)C(O)CO (stereo not drawn)  > 100 µM (inactive)
4        Nc1nc(CC2(O)CCCCC2)cc(-c2ccccc2)n1   29.2 µM (inactive)
5  O=C(C=P(c1ccccc1)(c1ccccc1)c1ccccc1)C12CC3CC(CC(C3)C1)C2     16 µM (inactive)

Entry COC1CCC(CO)OO1 (stereo not drawn) : GI50 on M14 = 47.9 µM (inactive)

Entry O=C1CC(C(=O)O)Cc2c(Br)ccc(O)c21 (stereo not drawn) : GI50 on M14 = > 100 µM (inactive)

Entry CCOC(=O)C1=NN(c2ccc(C)cc2)C2(c3ccccc3)C=C(c3ccccc3)N(C)CCN12 (stereo not drawn) : GI50 on M14 = > 100 µM (inactive)

Entry O=C(O)CCC(N/C=C1/N=C(c2ccccc2)OC1=O)C(=O)O (stereo not drawn) : GI50 on M14 = > 100 µM (inactive)

Entry Cc1ccc(C=C(C(=O)O)C(=O)O)o1 : GI50 on M14 = > 100 µM (inactive)

Entry Nc1nc(-c2ccccc2)c(CC(=O)O)s1 : GI50 on M14 = > 100 µM (inactive)

Entry CN(C)c1nc(N)nc(CCl)n1 : GI50 on M14 = 28.1 µM (inactive)

Entry CC(=O)Oc1ccc2[nH]c3c(C)c4cccc-4ccc3c2c1 : GI50 on M14 = 2.17 µM (inactive)

Entry C=C1C(=O)O[C@@H]2/C=C(\C)CC/C=C(\C)CC[C@@]12O : GI50 on M14 = 3.7 µM (inactive)

Entry COC(=O)C(=O)C(CC(=O)Nc1cccc(C(F)(F)F)c1)C(=O)OC (stereo not drawn) : GI50 on M14 = > 100 µM (inactive)

Entry O=C1C[C@@H]2[C@@H](CCC23CC3)N1 : GI50 on M14 = > 100 µM (inactive)

Entry CC(C)C(=O)OCC1CCCN2CCCCC12 (stereo not drawn) : GI50 on M14 = > 100 µM (inactive)

Entry O=C(O)CN1C(=O)c2ccc(NC(=O)C(=O)O)cc2S1(=O)=O : GI50 on M14 = > 100 µM (inactive)

Entry Cc1cc2ncc3c(=O)n(NS(=O)(=O)c4ccc(N)cc4)ccc3n2n1 : GI50 on M14 = > 100 µM (inactive)

Entry CC1CCC(C(=O)O)(C(Br)C(=O)O)CC1 (stereo not drawn) : GI50 on M14 = > 100 µM (inactive)

Entry COC(=O)[C@H]1[C@H](OC(=O)[C@@H](OC)c2ccccc2)ON2CC[C@@H](OC(=O)c3ccccc3)[C@H]12 : GI50 on M14 = > 100 µM (inactive)

Entry CN(C)/C=N/n1c2ccccc2c2ccccc21 : GI50 on M14 = > 100 µM (inactive)

Entry C=CCC1CC(n2cc(C)c(=O)[nH]c2=O)OC1CO[Si](C)(C)C(C)(C)C (stereo not drawn) : GI50 on M14 = 18.6 µM (inactive)

###

test system: CAKI-1; experiment: NCI tumour cell line growth inhibition, 48 h
The source made the active and inactive calls. No stated cut-off is given here; in the data, active = GI50 up to about 1.1 µM and inactive = higher.
outcome_measure: GI50

# annotated cases, reported GI50 shown
> print(dat)
                                    molecule               result
 1                   CCNCCNC(=O)c1ccc(Br)cc1  > 100 µM (inactive)
 2  Cc1ccccc1SC(/C=C/NNC1=NN=C(c2ccccc2)C(c2ccccc2)N1)c1ccccc1 (centres undefined)   13.7 µM (inactive)
 3  CC(CC(C)(C)[N+](C)(C)C)[N+](C)(C)C (centres undefined)  > 100 µM (inactive)
 4  Cc1cc(C)nc(NS(=O)(=O)c2ccc(NNc3c4ccccc4nc4c(C(=O)Nc5ccc(S(N)(=O)=O)cc5)cccc34)cc2)n1   50.1 µM (inactive)
 5  CC(C)[C@](O)(C(=O)OCC1CC[N+]2([O-])CC[C@@H](O)C12)[C@H](C)O (some centres undefined)  > 375 µM (inactive)
 6  COC(=O)c1cc2c(cc1Cl)Sc1nnc(Nc3ccccc3)n1S2(=O)=O   2.42 µM (inactive)
 7          O=C(O)CNC(=O)c1ccc(-c2ccccc2)cc1  > 100 µM (inactive)
 8   Cc1c(-c2ccc(O)c(O)c2)oc(=O)c2c(O)cccc12   7.35 µM (inactive)
 9  Cc1c(NC(=O)CCl)c(=O)oc2c(C)c3occc(=O)c3cc12   12.3 µM (inactive)
10  NC(=O)NOCC1NC(=O)NC1=O (centres undefined)  > 100 µM (inactive)

Entry COc1ccc2ccc([Se]c3ccc4ccc(OC)cc4c3)cc2c1 : GI50 on CAKI-1 = 38.7 µM (inactive)

Entry COc1cc2c(cc1OC)C1C(=O)c3c(O)cc4c(c3OC1CO2)C=CC(C)(C)O4 (centres undefined) : GI50 on CAKI-1 = 21.7 µM (inactive)

Entry COc1ccc(/C=C2\C[C@H]3[C@@H]4CC=C5C[C@@H](OC(C)=O)CC[C@]5(C)[C@H]4CC[C@]3(C)\C2=N\O)cc1OC : GI50 on CAKI-1 = 11.2 µM (inactive)

Entry CCOC(=O)c1cc2c(OC(C)=O)ccc(OC(C)=O)c2s1 : GI50 on CAKI-1 = 4.35 µM (inactive)

Entry COC(=O)[C@@H]1[C@H](OC(C)=O)CCC2[C@@]3(C[C@@H](c4ccoc4)O[C@@H]3OC)[C@H](C)CC[C@]21C(=O)OC (some centres undefined) : GI50 on CAKI-1 = > 25 µM (inactive)

Entry O=C1C2SC34c5c2c2ccccc2n5CCC3CCCN14 (centres undefined) : GI50 on CAKI-1 = 48.4 µM (inactive)

Entry O=c1oc2cccnc2n1CCN1CCN(c2ccc(Oc3ccccc3)cc2)CC1 : GI50 on CAKI-1 = > 100 µM (inactive)

Entry C=CCN1C[C@H](C)N([C@H](c2ccc(C(=O)N(CC)CCO)cc2)c2cccc(OC)c2)C[C@H]1C : GI50 on CAKI-1 = > 100 µM (inactive)

Entry CC(=O)[C@@]1(O)CC[C@H]2[C@@H]3C[C@H](C)C4=CC(=O)C=C[C@]4(C)[C@@]3(F)[C@@H](O)C[C@@]21C [FLUOROMETHOLONE] : GI50 on CAKI-1 = > 100 µM (inactive)

###

system: SK-MEL-28; assay: NCI tumour cell line growth inhibition, 48 h
Calls of active or inactive are those of the source. Rule as the data show it: active = GI50 up to about 1.1 µM and inactive = higher.
Consider the following compounds and their measured GI50 readings.

# annotated cases, reported GI50 shown
> print(dat)
                                    compound               result
 1  CN1C(=O)C2(c3ccccc31)C1CC3C(CO1)C1C2C3(CO)CN1C#N (configuration not stated)  > 100 µM (inactive)
 2            c1ccc2cc(-c3cc4ccccc4s3)ccc2c1  > 100 µM (inactive)
 3  Cc1ccc(C(=O)O/N=C2/CCCCC2CN(C)C)cc1 (configuration not stated)  > 100 µM (inactive)
 4         COC(=O)Cc1cc(=O)[nH]c2c1C(=O)CCC2  > 100 µM (inactive)
 5  COC(=O)C(=O)C(CC(=O)Nc1cccc(C(F)(F)F)c1)C(=O)OC (configuration not stated)  > 100 µM (inactive)
 6     COc1ccc(/C(Cl)=C/c2ccc(Cl)c(Cl)c2)cc1   38.2 µM (inactive)
 7  CCOC(=O)C(NC(=O)c1cccc(Cl)c1)(Nc1ccc(S(=O)(=O)Nc2cc(C)nc(C)n2)cc1)C(F)(F)F (configuration not stated)  > 100 µM (inactive)
 8      CSc1cnc2ccccc2c1Sc1c[nH]c2ccccc2c1=O   11.1 µM (inactive)
 9  NC1CC(=O)c2ccccc21 (configuration not stated)  > 100 µM (inactive)
10  CC#C[C@@]1(O)CCCCC1O (some centres not stated)  > 100 µM (inactive)

In plain terms, NC(=O)C1C(=O)Oc2cccnc21 (configuration not stated) has a documented GI50 of > 100 µM (inactive)

In plain terms, c1ccc2c(c1)c(N1CCCCC1)cc1nc3c(cc(N4CCCCC4)c4ccccc43)nc12 has a documented GI50 of > 100 µM (inactive)
